Assay: Solubility of fosfluconazole derivatives in pharmaceutical solvents (Table 2)
Assay type: physicochemical
Conditions: oil or lipid, thermodynamic from solid; Miglyol 812, 25° C.
For each record, write down the corresponding solubility at 24 h.
Give bare numbers, in µg/mL.

Reference set, count: 4
CCOP(=O)(O[C@H]1CC[C@@]2(C)C(=CC[C@H]3[C@@H]4CC[C@H]([C@H](C)CCCC(C)C)[C@@]4(C)CC[C@@H]32)C1)OC(Cn1cncn1)(Cn1cncn1)c1ccc(F)cc1F (stereo partly drawn) | 9700
CCCCCCCCCOP(=O)([O-])OC(Cn1cncn1)(Cn1cncn1)c1ccc(F)cc1F.[Na+] | 1200
C[N+](C)(C)CCOP(=O)([O-])OC(Cn1cncn1)(Cn1cncn1)c1ccc(F)cc1F | 400
CCCCCCCCCOCCOP(=O)([O-])OC(Cn1cncn1)(Cn1cncn1)c1ccc(F)cc1F.[Na+] | 2600

Please examine the following record next.
Query block: Quick one: solubility at 24 h of CCCCCCCCCC(=O)OCCOP(=O)([O-])OC(Cn1cncn1)(Cn1cncn1)c1ccc(F)cc1F.[Na+] ?
Result block: 5000
